- Tested on: Excised Aorta of Rat
- experiment-notes: Test with Excised Aorta of Rat: relaxation of lasting contraction following KCl (30 mM) addition
- Format: cell-based, male Sprague Dawley rat
- protocol-conditions: rat thoracic aorta rings, 30 mM KCl contraction, 37° C.
Kindly state IC50 for each of the entries shown.
Reply numerically in nM, unit not repeated.

In: Report IC50 for CCC1(C)C=C(C(=S)NC)c2cc([N+](=O)[O-])ccc2O1 (stereo not shown) please.
Out: 0.18

In: Report IC50 for `CCCNC(=S)C1=CC(C)(C)Oc2ccc([N+](=O)[O-])cc21` please.
Out: 3

In: Report IC50 for `CNC(=S)C1=CC2(CCCCC2)Oc2ccc([N+](=O)[O-])cc21` please.
Out: 0.14

In: Report IC50 for CCC1(C)C=C(C(=O)NC)c2cc([N+](=O)[O-])ccc2O1 (stereo not shown) please.
Out: 2.1

In: Report IC50 for `CCNC(=S)C1=CC(C)(C)Oc2ccc([N+](=O)[O-])cc21` please.
Out: 3.7

In: Report IC50 for `CNC(=O)C1=CC2(CCCCC2)Oc2ccc([N+](=O)[O-])cc21` please.
Out: 0.042

In: Report IC50 for `CNC(=S)C1=CC(C)(C)Oc2ccc(Br)cc21` please.
Out: 9.3

In: Report IC50 for `CNC(=S)C1=CC2(CCCC2)Oc2ccc([N+](=O)[O-])cc21` please.
Out: 0.037

In: Report IC50 for `CN=C(NC#N)C1=CC(C)(C)Oc2ccc([N+](=O)[O-])cc21` please.
Out: 11

In: Report IC50 for `CNC(=O)C1=CC(C)(C)Oc2ccc([N+](=O)[O-])cc21` please.
Out: 11

In: Report IC50 for `CNC(=S)C1=CC(C)(C)Oc2ccc(C#N)cc21` please.
Out: 33

In: Report IC50 for `CCCNC(=O)C1=CC(C)(C)Oc2ccc([N+](=O)[O-])cc21` please.
Out: 5.7

In: Report IC50 for CNC(=O)C1CC(C)(C)Oc2ccc([N+](=O)[O-])cc21 (stereo not shown) please.
Out: 14

In: Report IC50 for CC1(C)Oc2ccc(C#N)cc2[C@@H](N2CCCC2=O)[C@@H]1O (relative stereo) [Cromakalim, reference compound] please.
Out: 180

In: Report IC50 for `CNC(=S)C1=CC(C)(C)Oc2ccc(C(F)(F)F)cc21` please.
Out: 2.6

In: Report IC50 for `CNC(=S)C1=CC(C)(C)Oc2ccc([N+](=O)[O-])cc21` please.
Out: 1.4

In: Report IC50 for `CCN(CC)C(=O)C1=CC(C)(C)Oc2ccc([N+](=O)[O-])cc21` please.
Out: 6000

In: Report IC50 for `CC1(C)C=C(C(=S)NC2CC2)c2cc([N+](=O)[O-])ccc2O1` please.
Out: 3.7
